# assay-explanation: Cytotoxicity in HepG2.117 cells, ATPlite Luminescence Assay
# Format: cell-based, human
# applied-conditions: human, incubated for 3 days, mean value, read-out: TOX-HepG2.117 CC50 (μM, mean value)
Could you please report measured CC50 at 3 days for the items listed next?

Query: What value of CC50 at 3 days has been reported for the following compound? C[C@@H]1Cc2nn3c(c2CN1C(=O)c1ccc(Cl)c(Cl)c1)C(=O)N(Cc1cnc(Cl)c(F)c1)CC3
Reply: 35.2 µM

Query: Repeat for the following compound: C[C@@H]1Cc2nn3c(c2CN1C(=O)c1ccc(Cl)c(Cl)c1)C(=O)N(Cc1cc(F)cc(C#N)c1)CC3
Reply: > 12.5 µM

Query: Same question, C[C@@H]1Cc2nn3c(c2CN1C(=O)c1ccc(Cl)c(Cl)c1)C(=O)N(Cc1ccc(C(F)(F)F)nc1)CC3 this time
Reply: 15.3 µM

Query: Now the same for C[C@@H]1Cc2nn3c(c2CN1C(=O)c1ccc(Cl)c(Cl)c1)C(=O)N([C@H](C)c1c[nH]nn1)CC3 (single isomer, unassigned)
Reply: > 50 µM

Query: Query C[C@@H]1Cc2nn3c(c2CN1C(=O)c1ccc(Cl)c(Cl)c1)C(=O)N(Cc1ccn(C)n1)CC3 next
Reply: > 50 µM

Query: Follow-up entry: CC(c1cccnc1)N1CCn2nc3c(c2C1=O)CN(C(=O)c1ccc(Cl)c(Cl)c1)[C@H](C)C3 (stereo partly shown)
Reply: > 50 µM

Query: Now the compound C[C@@H]1Cc2nn3c(c2CN1C(=O)c1ccc(Cl)c(Cl)c1)C(=O)N(Cc1cncc(F)c1)CC3
Reply: > 50 µM

Query: Try this compound next: Cc1nnc(C(C)N2CCn3nc4c(c3C2=O)CN(C(=O)c2ccc(Cl)c(Cl)c2)[C@H](C)C4)s1 (stereo partly shown)
Reply: > 50 µM

Query: Same question, C[C@@H]1Cc2nn3c(c2CN1C(=O)c1ccc(Cl)c(Cl)c1)C(=O)N(Cc1ccc(C#N)cn1)CC3 this time
Reply: > 50 µM

Query: What about this compound? CC(c1ccc(OC(F)(F)F)cc1)N1CCn2nc3c(c2C1=O)CN(C(=O)c1ccc(Cl)c(Cl)c1)[C@H](C)C3 (stereo partly shown)
Reply: 15.7 µM

Query: Can you handle CC(C)c1noc(C(C)N2CCn3nc4c(c3C2=O)CN(C(=O)c2ccc(Cl)c(Cl)c2)[C@H](C)C4)n1 (stereo partly shown) next?
Reply: > 50 µM

Query: Same lookup for Cc1ncc(CN2CCn3nc4c(c3C2=O)CN(C(=O)c2ccc(Cl)c(Cl)c2)[C@H](C)C4)o1 , please.
Reply: > 50 µM

Query: Note, next up: CC(C)CN1CCCn2nc3c(c2C1=O)CN(C(=O)c1ccc(Cl)c(Cl)c1)[C@H](C)C3
Reply: > 50 µM

Query: Do the same for C[C@@H]1Cc2nn3c(c2CN1C(=O)c1ccc(Cl)c(Cl)c1)C(=O)N(Cc1ccc(C#N)cc1F)CC3 please
Reply: 35.5 µM

Query: How about this compound: COc1ccc(CCN2CCn3nc4c(c3C2=O)CN(C(=O)c2ccc(Cl)c(Cl)c2)[C@H](C)C4)cc1
Reply: 18 µM

Query: # repeat for CC(c1ccc(Br)cc1)N1CCn2nc3c(c2C1=O)CN(C(=O)c1ccc(Cl)c(Cl)c1)[C@H](C)C3 (stereo partly shown)
Reply: 9.83 µM

Query: Record: C[C@@H]1Cc2nn3c(c2CN1C(=O)c1ccc(Cl)c(Cl)c1)C(=O)N(Cc1ncccn1)CC3
Reply: > 50 µM

Query: Then this compound: C[C@@H]1Cc2nn3c(c2CN1C(=O)c1ccc(Cl)c(Cl)c1)C(=O)N(Cc1cc(F)ccc1OC(F)F)CC3
Reply: > 50 µM

Query: Would you kindly repeat that for C[C@@H]1Cc2nn3c(c2CN1C(=O)c1cc2c(F)ccc(F)c2[nH]1)C(=O)N(Cc1ccccn1)CC3 ?
Reply: 20 µM

Query: Note, next up: CC(c1ccccn1)N1CCn2nc3c(c2C1=O)CN(C(=O)c1ccc(Cl)c(Cl)c1)[C@H](C)C3 (stereo partly shown)
Reply: > 50 µM

Query: Another compound: O=C(c1ccc(Cl)c(Cl)c1)N1CCc2nn3c(c2C1)C(=O)N(Cc1ccncc1)CCC3
Reply: > 50 µM

Query: Can you handle C[C@@H]1Cc2nn3c(c2CN1C(=O)c1ccc(Cl)c(Cl)c1)C(=O)N(Cc1cc(C#N)c(F)cc1F)CC3 next?
Reply: > 50 µM

Query: Next compound: C[C@@H]1Cc2nn3c(c2CN1C(=O)c1ccc(Cl)c(Cl)c1)C(=O)N([C@H](C)c1ccc(C#N)cc1)CC3 (relative stereo)
Reply: > 50 µM

Query: One more compound: COc1ccc(CN2CCn3nc4c(c3C2=O)CN(C(=O)c2ccc(Cl)c(Cl)c2)[C@H](C)C4)cc1
Reply: 8.43 µM

Query: Next compound up: O=C(c1cnc(Cl)c(Cl)c1)N1CCc2nn3c(c2C1)C(=O)N(Cc1ccccn1)CC3
Reply: > 50 µM

Query: Further, for Cc1cc(C(=O)N2Cc3c(nn4c3C(=O)N(Cc3ccccn3)CC4)C[C@H]2C)ccc1Cl ?
Reply: > 50 µM

Query: Another compound: Cc1conc1CN1CCn2nc3c(c2C1=O)CN(C(=O)c1ccc(Cl)c(Cl)c1)[C@H](C)C3
Reply: > 51 µM

Query: Now give it for COc1ccc(CN2CCn3nc4c(c3C2=O)CN(C(=O)c2cccc(Cl)c2)CC4)cc1 too.
Reply: 13.6 µM

Query: What do you have for COc1ccc(CN2CCn3nc4c(c3C2=O)CN(C(=O)c2ccc(Cl)c(C#N)c2)CC4)cc1 ?
Reply: > 49 µM

Query: Item: CN1CCCn2nc3c(c2C1=O)CN(C(=O)c1ccc(Cl)c(Cl)c1)CC3
Reply: > 50 µM

Query: Same question for Cc1cccnc1CN1CCn2nc3c(c2C1=O)CN(C(=O)c1ccc(Cl)c(Cl)c1)[C@H](C)C3 please.
Reply: > 50 µM
